target: Serine/threonine-protein kinase 3 (Homo sapiens); conditions: at 1 µM;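 also: each value is the mean inhibition of MST2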
Below is a list of entries, each paired with its recorded inhibition value.
observable: inhibition (%)

COc1ccccc1-c1cc(/C=C2\C(=O)Nc3ncc(Br)cc32)cc(Br)c1O = 8.09
Fc1ccc(Nc2nccc(-c3c(-c4ccc(C(F)(F)F)cc4)nn4ncccc34)n2)cc1F = 5.09
CS(=O)(=O)CCNCc1ccoc1-c1ccc2ncnc(Nc3ccc(OCc4ccccc4)cc3)c2c1 = 3.29
NC(=O)c1ccc2c(-c3ccnc(NCCCO)n3)c(-c3ccc(F)cc3)nn2c1 = 4.67
COc1cc2c(cc1Nc1nc(Nc3cccc(F)c3C(N)=O)c3cc[nH]c3n1)N(C(=O)CN1CCN(C(C)C)CC1)CC2 = 2.65
N#Cc1ccc2c(-c3ccnc(NC4CC4)n3)c(-c3ccc(F)cc3)nn2c1 = 1.55
Cc1c2ccc(N(C)c3ccnc(Nc4cccc(S(N)(=O)=O)c4)n3)cc2nn1C = 7.64
CNC(=O)c1ncccc1Nc1nc(Nc2cc3c(cc2OC)CCCN3C(=O)CN(C)C)nc2[nH]ccc12 = 7.84
CN(C)CCNC(=O)Nc1ccc(N(C)c2ccnc(Nc3ccc(CS(C)(=O)=O)cc3)n2)cc1 = 6.98

====

molecular target: Serine/threonine-protein kinase Nek9 (Homo sapiens) (UniProt Q8TD19); conditions: at 0.1 µM;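 also: reported value is the mean percent inhibition of NEK9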
Sequence (Q8TD19 whole entry): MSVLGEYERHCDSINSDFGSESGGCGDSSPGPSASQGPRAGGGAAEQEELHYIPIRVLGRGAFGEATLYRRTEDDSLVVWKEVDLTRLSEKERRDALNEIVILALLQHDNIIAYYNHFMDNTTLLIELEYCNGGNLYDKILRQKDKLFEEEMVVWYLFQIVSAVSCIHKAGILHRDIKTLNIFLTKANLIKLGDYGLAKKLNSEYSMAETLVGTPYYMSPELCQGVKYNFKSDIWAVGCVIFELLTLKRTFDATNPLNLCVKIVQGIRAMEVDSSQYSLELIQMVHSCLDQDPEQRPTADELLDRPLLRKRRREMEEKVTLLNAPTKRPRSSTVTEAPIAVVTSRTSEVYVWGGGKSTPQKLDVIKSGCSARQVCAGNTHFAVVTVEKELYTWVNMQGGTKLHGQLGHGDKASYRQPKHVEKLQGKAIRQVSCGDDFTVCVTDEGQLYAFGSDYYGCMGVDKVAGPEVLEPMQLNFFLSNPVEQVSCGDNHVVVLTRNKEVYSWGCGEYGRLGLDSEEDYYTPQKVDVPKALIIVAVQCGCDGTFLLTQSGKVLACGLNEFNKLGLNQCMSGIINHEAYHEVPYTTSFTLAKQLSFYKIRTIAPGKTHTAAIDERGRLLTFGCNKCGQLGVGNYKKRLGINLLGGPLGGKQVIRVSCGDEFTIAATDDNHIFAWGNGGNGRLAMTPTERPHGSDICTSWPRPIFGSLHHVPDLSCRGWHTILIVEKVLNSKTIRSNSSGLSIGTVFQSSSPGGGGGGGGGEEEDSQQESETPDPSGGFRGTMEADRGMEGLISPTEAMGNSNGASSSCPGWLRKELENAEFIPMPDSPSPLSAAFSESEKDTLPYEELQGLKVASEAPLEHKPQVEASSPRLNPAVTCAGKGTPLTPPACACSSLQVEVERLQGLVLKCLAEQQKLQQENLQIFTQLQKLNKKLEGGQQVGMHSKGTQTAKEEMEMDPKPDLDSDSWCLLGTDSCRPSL
Below is a list of entries, each paired with its recorded inhibition value.
observable: inhibition (%)

Cn1c(-c2nonc2N)nc2cnccc21 = 12.2
NS(=O)(=O)c1ccc(N/N=C2\C(=O)Nc3cccc(CCc4ccncc4)c32)cc1 = 2.93
O=C(O[C@H]1CN[C@H](C#Cc2cc3ncnc(Nc4ccc(OCc5cccc(F)c5)c(Cl)c4)c3s2)C1)N1CCOCC1 = 5.79
CCCNc1cccc(-n2ncc3c(N/N=C/c4ccncc4)ncnc32)c1 = 1.01
COc1c(C(N)=O)cc(-c2ccc(Cl)cc2)cc1-c1ccc(S(N)(=O)=O)cc1 = 4.85
N#Cc1cccc(Nc2ncc(-c3ccccc3)o2)c1 = 8.32
O=C(O[C@H]1CN[C@H](C#Cc2cc3ncnc(Nc4ccc5c(cnn5Cc5ccccc5)c4)c3s2)C1)N1CCOCC1 = -1.71
Cc1cc(O)cc(C)c1/C=C/c1cncc(C(=O)OC(C)(C)C)c1 = 8.55
Fc1cccc(COc2ccc(Nc3ncncc3C#Cc3ccccc3)cc2Cl)c1 = 10.8
COC(=O)Nc1nc2ccc(Oc3ccc(NC(=O)Nc4cc(C(F)(F)F)ccc4F)cc3)cc2s1 = -1.57
CS(=O)(=O)CCNCc1ccc(-c2ccc3ncnc(Nc4ccc(OCc5cccc(C(F)(F)F)c5)cc4)c3c2)o1 = 4.02
Cc1cc(O)cc(C)c1/C=C/c1cncc(C(N)=O)c1 = 5.2
CS(=O)(=O)Nc1ccc(-c2ccc3c(NC(=O)C4CC4)n[nH]c3c2)cc1 = 2.89
Cc1ccc(-c2cc3c(NC(=O)C4CC4)ncnc3o2)cc1 = 3.07
CNC(=O)c1cncc(/C=C/c2ccccc2C)c1 = 3.46
O=C(O[C@H]1CN[C@H](C#Cc2cc3ncnc(Nc4ccc5c(ccn5Cc5cc(F)ccc5F)c4)c3s2)C1)N1CCOCC1 = 4.24
COc1ccccc1-c1cc(/C=C2\C(=O)Nc3ncc(Br)cc32)cc(Br)c1O = 3.73
COc1cccc(-n2ncc3c(N/N=C/c4ccc(C(=O)NCCN(C)C)cc4)ncnc32)c1 = 5.54
CN(C)CCNC(=O)Nc1ccc(N(C)c2ccnc(Nc3ccc(CS(C)(=O)=O)cc3)n2)cc1 = 0.16
